Source of measurements: patent US11566007B2

- assayed target: KRAS G12S (Homo sapiens (Human), UniProt P01116+P62937, G12S)
- Sequence (P01116-2 other isoform, or with tags, fused parts or gaps G12S): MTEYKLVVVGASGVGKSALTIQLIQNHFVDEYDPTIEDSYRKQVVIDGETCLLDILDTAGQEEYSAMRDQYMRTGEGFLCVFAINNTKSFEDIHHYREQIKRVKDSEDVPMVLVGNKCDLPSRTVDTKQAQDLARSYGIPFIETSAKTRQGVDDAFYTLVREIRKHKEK
- Sequence (P62937 whole entry): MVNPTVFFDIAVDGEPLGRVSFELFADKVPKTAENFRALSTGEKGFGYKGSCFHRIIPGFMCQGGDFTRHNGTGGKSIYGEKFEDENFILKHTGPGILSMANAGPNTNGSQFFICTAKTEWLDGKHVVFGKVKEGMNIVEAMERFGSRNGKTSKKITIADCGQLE
- experiment: Ras-Raf (BRAF RBD) disruption / FRET / MOA assay, KRAS G12S
- Type: biochemical
- settings: Ras-Raf disruption/FRET/MOA assay; class symbols; read-out: KRAS G12S FRET data IC50
Reported IC50 by item:

CCn1c(-c2cccnc2[C@H](C)OC)c2c3cc(ccc31)N1CCO[C@@H](C[C@H](NC(=O)[C@H](C(C)C)N(C)C(=O)C3(F)CCN(C(=O)C#CC(C)(C)N(C)C)CC3)C(=O)N3CCC[C@H](N3)C(=O)OCC(C)(C)C2)C1 (atropisomer, axis not shown) [Example A647]	1000 to 10000 nM

Which IC50 reading was recorded for the molecule C=CC(=O)N1C[C@H](C(=O)N(C)[C@H](C(=O)N[C@H]2Cc3cccc(c3)-c3ccc4c(c3)c(c(-c3cccnc3[C@H](C)OC)n4CC)CC(C)(C)COC(=O)[C@@H]3CCCN(N3)C2=O)C(C)C)[C@H](C(F)(F)F)C1 (atropisomer, axis not shown) [Example A400] ?
> 10000 nM

Which IC50 reading was recorded for the molecule C=CC(=O)N(C)[C@H]1C[C@H](N(C)C(=O)N(C)[C@H](C(=O)N[C@H]2Cc3nc(cs3)-c3ccc4c(c3)c(c(-c3cccnc3[C@H](C)OC)n4CC)CC(C)(C)COC(=O)[C@@H]3CCCN(N3)C2=O)C(C)C)C1 (atropisomer, axis not shown) [Example A712] ?
10 to 100 nM

Which IC50 reading was recorded for the molecule C=CC(=O)N1CCO[C@]2(CCN(C(=O)N(C)[C@H](C(=O)N[C@H]3Cc4nc(cs4)-c4ccc5c(c4)c(c(-c4cccnc4[C@H](C)OC)n5CC(F)(F)F)CC(C)(C)COC(=O)[C@@H]4CCCN(N4)C3=O)C(C)C)C2)C1 (atropisomer, axis not shown) [Example A593] ?
1000 to 10000 nM

* * *

- assayed target: KRAS WT (Homo sapiens (Human), UniProt P01116+P62937)
- Sequence (P01116-2 other isoform, or with tags, fused parts or gaps): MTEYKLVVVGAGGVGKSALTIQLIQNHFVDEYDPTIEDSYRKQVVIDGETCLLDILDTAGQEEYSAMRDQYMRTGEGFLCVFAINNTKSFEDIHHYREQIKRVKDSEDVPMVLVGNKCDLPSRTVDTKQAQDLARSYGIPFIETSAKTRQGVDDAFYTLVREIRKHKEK
- Sequence (P62937 whole entry): as the sequence (P62937 whole entry) above
- experiment: Ras-Raf (BRAF RBD) disruption / FRET / MOA assay, KRAS WT
- Format: biochemical
- settings: read-out: IC50* KRAS WT FRET data
Reported IC50 by item:

Here are 8 molecules together with their reported answers.
C=CC(=O)NC[C@H]1CCN1C(=O)N(C)[C@H](C(=O)N[C@H]1Cc2nc(cs2)-c2ccc3c(c2)c(c(-c2cccnc2[C@H](C)OC)n3CC)CC(C)(C)COC(=O)[C@@H]2CCCN(N2)C1=O)C(C)C (atropisomer, axis not shown) [Example A356]	0.1 to 1 µM
C=CC(=O)N1CC(F)(C(=O)N(C)[C@H](C(=O)N[C@H]2Cc3cccc(c3)-c3ccc4c(c3)c(c(-c3cccnc3[C@H](C)OC)n4CC)CC(C)(C)COC(=O)[C@@H]3CCCN(N3)C2=O)C(C)C)C1 (atropisomer, axis not shown) [Example A517]	0.1 to 1 µM
CCn1c(-c2cccnc2)c2c3cc(ccc31)-c1csc(c1)C[C@H](NC(=O)[C@H](C(C)C)N(C)C(=O)[C@H]1CCN(C(=O)C#CCN3CCOCC3)C1)C(=O)N1CCC[C@H](N1)C(=O)OCC(C)(C)C2 [Example A205]	> 10 µM
C=CC(=O)N1CCO[C@@]2(CCN(C(=O)N(C)[C@H](C(=O)N[C@H]3Cc4nc(cs4)-c4ccc5c(c4)c(c(-c4cccnc4[C@H](C)OC)n5CC(F)(F)F)CC(C)(C)COC(=O)[C@@H]4CCCN(N4)C3=O)C(C)C)C2)C1 (atropisomer, axis not shown) [Example A594]	0.01 to 0.1 µM
CC#CC(=O)N1CC[C@H](C(=O)N(C)[C@H](C(=O)N[C@H]2Cc3cccc(c3)-c3ccc4c(c3)c(c(-c3cccnc3[C@H](C)OC)n4CC)CC(C)(C)COC(=O)[C@@H]3CCCN(N3)C2=O)C(C)C)C1 (atropisomer, axis not shown) [Example A173]	> 10 µM
C=CC(=O)N1CCO[C@@H]2CCN(C(=O)N(C)[C@H](C(=O)N[C@H]3Cc4nc(cs4)-c4ccc5c(c4)c(c(-c4cccnc4[C@H](C)OC)n5CC)CC(C)(C)COC(=O)[C@@H]4CCCN(N4)C3=O)C(C)C)C[C@@H]21 (atropisomer, axis not shown) [Example A581]	0.1 to 1 µM
CCn1c(-c2ccccc2CCOC)c2c3cc(ccc31)-c1cc(O)cc(c1)C[C@H](NC(=O)[C@H](C(C)C)N(C)C(=O)c1ccc(NC(=O)/C=C/CN(C)C)cn1)C(=O)N1CCC[C@H](N1)C(=O)OCC(C)(C)C2 [Example A224]	> 10 µM
C=CC(=O)N1CC[C@H](C(=O)N(C)[C@H](C(=O)N[C@H]2CC3=CCCN(C3)c3ccc4c(c3)c(c(-c3cccnc3[C@H](C)OC)n4CC)CC(C)(C)COC(=O)[C@@H]3CCCN(N3)C2=O)C(C)C)C1 (atropisomer, axis not shown) [Example A486]	> 10 µM

Moving on to the next molecule.
Which IC50 reading was recorded for the molecule C/C=C(\C#N)C(=O)N1CC[C@H](C(=O)N(C)[C@H](C(=O)N[C@H]2Cc3cc(O)cc(c3)-c3ccc4c(c3)c(c(-c3cccnc3COC)n4CC)CC(C)(C)COC(=O)[C@@H]3CCCN(N3)C2=O)C(C)C)C1 [Example A178] ?
1 to 10 µM
